Test system: PC-3
test: NCI tumour cell line growth inhibition, 48 h
Calls of active or inactive are those of the source. Rule as the data show it: active = GI50 up to about 1.1 µM and inactive = higher.
quantity-kind: GI50

Past entries and their recorded results:
compound	GI50
COC(=O)C1=CC(=O)OC1(OO)c1ccccc1 (stereo not given)	> 100 µM (inactive)
COc1cc([C@@H]2c3cc4c(cc3[C@@H](NCCNCCO)[C@H]3COC(=O)[C@H]23)OCO4)cc(OC)c1O	2.67 µM (inactive)
CC1(C)O[C@@H]2[C@@H]3OC(=O)C[C@@H]3[C@@H](COCc3ccccc3)[C@@H]2O1	> 100 µM (inactive)
O=[N+]([O-])c1ccc2c(c1)nc1n2C(c2c(F)cccc2F)SC1 (stereo not given)	> 100 µM (inactive)
COCN1C(=O)[C@@H]2CCCN2C(=O)c2cc(N)ccc21	> 100 µM (inactive)
Nc1ccn(C2CCC(COP(=O)(O)OCC(O)COP(=O)(O)OCC3OC(n4cc(F)c(=O)[nH]c4=O)CC3O)O2)c(=O)n1 (stereo not given)	2.01 µM (inactive)
CC(=O)CC(=O)N1CCOC1=O	> 10 µM (inactive)
CC(=O)c1nc(C#N)c(N)o1	> 100 µM (inactive)
CC1=C(/C=C/C(C)=C/C=C/C(C)=C/C(=O)OC2CC(n3cc(F)c(=O)[nH]c3=O)OC2CO)C(C)(C)CCC1 (stereo not given)	1.99 µM (inactive)

Now take the following compound into account.
Q: Provide measured GI50 value, entry: CC(=O)NC(CSC1=C2NC(=O)\C=C/C=C\C=C/C(C)C(O)CC(=O)/C(C)=C\CC(O)/C=C\C(C)C(O)C(C)C=C(C)C(=O)c3c(O)c(C)cc(c3C1=O)C2=O)C(=O)O (stereo not given)
A: > 100 µM (inactive)

----------
Tested on: NCI/ADR-RES
test: NCI tumour cell line growth inhibition, 48 h
Calls of active or inactive are those of the source. Cut-off read from the data, not from the text of the source: active = GI50 up to about 1.1 µM and inactive = higher.
Your response should consist of one outcome taken from active, inactive

These solved cases illustrate the format of a correct answer.
compound	group
CCC(=O)Nc1cccc(/N=C/c2ccc(OC(=O)/C=C\c3ccccc3)cc2)c1	inactive
O=C1Nc2cc([N+](=O)[O-])ccc2N/C1=C/C(=O)c1ccc(Cl)cc1	inactive

Q: In this assay, the call recorded for CCOC(=O)C1(CC(=O)O)CCCC1=O (stereo not given) was what?
A: inactive

Q: In this assay, the call recorded for CC1(C)O[C@@H]2[C@@H]3OC(=O)C[C@@H]3[C@@H](COCc3ccccc3)[C@@H]2O1 was what?
A: inactive

Q: In this assay, the call recorded for CC(=O)OCC1OC(n2cnc(C(N)=S)c2N)C(OC(C)=O)C1OC(C)=O (stereo not given) was what?
A: inactive

Q: In this assay, the call recorded for CCC(=O)OC1CCn2c1nc1c2C(=O)C(C)=C(N2CC2)C1=O (stereo not given) was what?
A: active

Q: In this assay, the call recorded for O=C1C(Cl)=C(N2CCN(c3ncccn3)CC2)C(=O)c2c(O)ccc(O)c21 was what?
A: inactive

Q: In this assay, the call recorded for CCCC(=O)OCC1OC(n2cc(F)c(=O)[nH]c2=O)CC1OC(=O)CCC (stereo not given) was what?
A: inactive

Q: In this assay, the call recorded for O=c1[nH]c(=O)n(C2OC(CO)C(O)C2O)c2nc(-c3ccc(-c4ccccc4)cc3)cnc12 (stereo not given) was what?
A: inactive

Q: In this assay, the call recorded for C=C1COC(O)(C2OCOC(C3CC(=O)NC(=O)C3)C2O)C1C (stereo not given) was what?
A: active

Q: In this assay, the call recorded for CSc1ccc(C(=C=C=C(c2ccc(SC)s2)c2ccc(SC)s2)c2ccc(SC)s2)s1 was what?
A: inactive

Q: In this assay, the call recorded for COC12C=CC(CC1)C(C)(C)C2OS(C)(=O)=O (stereo not given) was what?
A: inactive

----------
Tested on: HCT-116
test: NCI tumour cell line growth inhibition, 48 h
Calls of active or inactive are those of the source. Cut-off read from the data, not from the text of the source: active = GI50 up to about 1.1 µM and inactive = higher.
Your response should consist of one outcome taken from y for active, n for inactive

These solved cases illustrate the format of a correct answer.
compound	group
O=C(O)[C@H]1NC[C@H]2C(Br)=NO[C@@H]12	n
c1ccc(CNc2c3c(nc4ccccc24)CCC3)cc1	n
Cc1c2c(n(CCc3ccccc3)c1C)NN=C(C#N)S2(=O)=O	n
COc1ccc(N2C(=O)C(=O)N(C)C2=O)c2ccccc12	n
COC(c1ccc(C(C)(C)C)cc1)(c1ccc(C(C)(C)C)cc1)c1ccc(C(C)(C)C)cc1	n
COc1cc2oc(-c3ccc(O)cc3)cc(=O)c2c(OC)c1O	n
COC(=O)C1=C(C)NC(C)=C(C(=O)OC)C1c1ccc(NO)cc1	n
C[Si](C)(C)C1=C([Si](C)(C)C)C(Cl)(Cl)C1=O	n
CC(=O)CCC(=O)C(=[N+]=[N-])S(=O)(=O)c1ccccc1	n
COc1cc2ccc(C(C)NCC#N)cc2cc1OC (stereo unspecified)	n

Q: In this assay, the call recorded for COc1cc([C@@H]2c3cc4c(cc3[C@@H](NC(=O)c3ccc([N+](=O)[O-])cc3)C3COC(=O)[C@@H]32)OCO4)cc(OC)c1O (stereo partly specified) was what?
A: y

Q: In this assay, the call recorded for Clc1ccc(-c2nnc(-c3c(Cl)c(Cl)c(Cl)c(Cl)c3-c3nc4ccccc4[nH]3)o2)cc1 was what?
A: n

Q: In this assay, the call recorded for C=CCSC1=N/C(=C\c2cccs2)C(=O)N1CC=C was what?
A: n

Q: In this assay, the call recorded for CCOC(=O)/C=C(\C(=O)OCC)n1ccc(=O)n(Cc2cn(COCCOC(C)=O)nn2)c1=O was what?
A: n

Q: In this assay, the call recorded for O=C1/C(=C/c2ccccc2Cl)COc2ccccc21 was what?
A: n

Q: In this assay, the call recorded for CN(c1ccccc1Cl)S(=O)(=O)c1ccc([N+](=O)[O-])cc1 was what?
A: n

Q: In this assay, the call recorded for CC[C@H]1C=CCC[C@@]2(C[C@@H]3CC[C@@H]4[C@H](C(=O)OCCCCCCCCCCCCCCCC(=O)N(CCCN)C[C@@H](O)CCN)[C@]5(CCC[C@@H](C)O5)NC(=[N+]34)N2)O1 was what?
A: y

Q: In this assay, the call recorded for Cc1ccc(S(=O)(=O)Nn2c(O)c(C#N)c(-c3ccc(N(C)C)cc3)c(C#N)c2=O)cc1 was what?
A: n

Q: In this assay, the call recorded for Oc1ccc(Br)cc1/C=N/c1ccc(Oc2ccc(/N=C/c3cc(Br)ccc3O)cc2)cc1 was what?
A: n

Q: In this assay, the call recorded for CN1CCN(c2c(Cl)cc(Cl)c3[nH]c4ccccc4c(=O)c23)CC1 was what?
A: n

Q: In this assay, the call recorded for Oc1ccc(Br)cc1/C=N/C1CCCCC1 was what?
A: n

Q: In this assay, the call recorded for CN(C)CCCn1c2ccccc2c2cnccc21 was what?
A: n

Q: In this assay, the call recorded for O=[N+]([O-])c1ccc(N2C[N+](c3ccccc3)=NC(c3ccccc3)=N2)cc1 was what?
A: n

Q: In this assay, the call recorded for Clc1ccc(Nc2ncco2)cc1Cl was what?
A: n

----------
Tested on: HCT-116
test: NCI tumour cell line growth inhibition, 48 h
Active and inactive are the calls of the source. Cut-off read from the data, not from the text of the source: active = GI50 up to about 1.1 µM and inactive = higher.
Your response should consist of one outcome taken from active, inactive

These solved cases illustrate the format of a correct answer.
molecule	group
Cc1nn2c3c(nnc2c1C#N)C(=O)NN=C(N)S3	inactive
O=C1CCCC1CN1CCCC1 (configuration not stated)	inactive
O=C1NC(c2ccccc2Cl)Nc2ccccc21 (configuration not stated)	inactive
O=c1c2cc(Cl)ccc2n2nnc3ccc(NCCNCCO)c1c32	active
CC[C@]1(Cc2ccc(OC)c(OC)c2)[C@@H]2C[C@@H](C(=O)OC)ON2O[C@H](OC2CCCC2(c2ccccc2)c2ccccc2)[C@@H]1OC(C)=O (some centres not stated)	inactive

Q: In this assay, the call recorded for CCOC(=O)c1cc2c3c(c(C(C)=O)c(OC)c2[nH]1)N(C(=O)CC)CC3 was what?
A: inactive

Q: In this assay, the call recorded for COc1c(-c2nc3ccc(N4CCN(C)CC4)nc3[nH]2)cc(OC)c2c1nc(COC(C)=O)n2C was what?
A: inactive

----------
System: HCT-116
test: NCI tumour cell line growth inhibition, 48 h
Active and inactive are the calls of the source. No stated cut-off is given here; in the data, active = GI50 up to about 1.1 µM and inactive = higher.
Your response should consist of one outcome taken from active, inactive

These solved cases illustrate the format of a correct answer.
compound	measured-target	group
c1ccc2c3nc(C4CCCC4)nc-3c(NC3CCCC3)[nH]c2c1	HCT-116	inactive
CC(C)=NN/C(=N\c1ccc(Cl)cc1)NS(=O)(=O)c1ccc(Oc2cccc(Cl)c2C#N)cc1	HCT-116	inactive
COc1ccc2c(c1)[C@@]13CCCC[C@H]1[C@@H](C2)N(C)CC3=O	HCT-116	inactive
CN(NC1=NCCO1)c1ccc2ccccc2c1	HCT-116	inactive
O=C1c2ccccc2C(=O)C1C(c1ccc([N+](=O)[O-])cc1)C1C(=O)c2ccccc2C1=O	HCT-116	inactive

Q: In this assay, the call recorded for O=C(CCc1nnc(S)[nH]1)Nc1ccccc1Cl was what?
A: inactive

Q: In this assay, the call recorded for O=C(O)CCSc1nnc(COc2ccc(Cl)cc2)n1-c1ccccc1 was what?
A: inactive

Q: In this assay, the call recorded for O=c1c(/C=C/c2c(O)ccc3ccccc23)nnc2sc(-c3cccc([N+](=O)[O-])c3)nn12 was what?
A: inactive

Q: In this assay, the call recorded for COc1cc(/C=C/c2ccc(OC)c(O)c2)cc(OC)c1 was what?
A: inactive

Q: In this assay, the call recorded for Oc1cc(-c2cccc(OC(F)(F)F)c2)nc2ccc(N3CCCC3)cc12 was what?
A: active

Q: In this assay, the call recorded for C[C@H](C1CC2(C)OC2(C)C(=O)O1)[C@H]1CC[C@H]2[C@@H]3[C@@H]4O[C@@H]4[C@@]4(O)CC=CC(=O)[C@]4(C)[C@H]3CC[C@]12C (some centres not stated) was what?
A: inactive

Q: In this assay, the call recorded for C=CCCCC12CCCc3cccc(c31)NC2=O (configuration not stated) was what?
A: inactive
